Please go through the items and note down their MIC.
- Tested on: Staphylococcus aureus, MSSA
- test_details: Broth dilution MIC (CLSI)
- Type: cell-based
- setup_conditions: read-out: MIC

Consider the worked cases shown below.
>>> reported_result("COC(=O)[C@@H]1CCC(=O)N1Cc1cc2ccc(OCc3ccccc3)cc2c2cc(OC)c(OC)cc12")
"> 100 µg/mL"
>>> reported_result("CCCCOc1ccc2cc(CN3C(=O)CC[C@H]3C(=O)OC)c3cc(OC)c(OC)cc3c2c1")
"> 100 µg/mL"
>>> reported_result("[H]/N=C(/N)N[C@H]1[C@H](O)[C@@H](O)[C@H](O[C@@H]2O[C@@H](C)[C@](O)(C=O)[C@H]2O[C@@H]2O[C@@H](CO)[C@H](O)[C@@H](O)[C@@H]2NC)[C@@H](N/C(N)=N\\[H])[C@@H]1O")
"6.3 µg/mL"
>>> reported_result("NNC(=O)c1ccncc1 [INH, isoniazid, reference compound]")
"> 100 µg/mL"

Then this compound:
// Input: `COC(=O)[C@@H]1CCC(=O)N1Cc1cc2ccc(OC)cc2c2cc(OC)c(OC)cc12` . Output its MIC only.
> 100 µg/mL

Numbers sourced from paper PMC9154192.
